# SYSTEM NAME: JAK3 (Homo sapiens (Human), UniProt P52333)
# Sequence (P52333 822-1111): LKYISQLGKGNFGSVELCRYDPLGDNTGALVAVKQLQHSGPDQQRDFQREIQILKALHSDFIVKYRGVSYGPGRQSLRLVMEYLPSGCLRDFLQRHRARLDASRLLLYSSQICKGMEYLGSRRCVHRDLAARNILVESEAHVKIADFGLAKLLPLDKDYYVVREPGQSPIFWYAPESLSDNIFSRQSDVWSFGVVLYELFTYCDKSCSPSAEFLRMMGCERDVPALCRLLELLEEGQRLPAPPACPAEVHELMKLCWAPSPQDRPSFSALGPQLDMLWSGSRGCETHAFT
# ASSAY TEXT: JAK kinase assay (HTRF), JAK3
# RECORDED CONDITIONS: catalytic domain, His-tag, ATP at Km (2 μM)
QUANTITY NAME: pEC50
Reminder that pEC50 is minus the log10 of a molar concentration.

Past entries and their recorded results:
COMPOUND	SYSTEM NAME	pEC50
CCC12CNCCC1CCN(c1ncnc3[nH]ccc13)C2 (centres unmarked) [Intermediate 10]	JAK3 (Homo sapiens (Human), UniProt P52333)	6.80
C[C@@]12CN(C#N)C[C@@H]1CCN(c1ncnc3[nH]ccc13)C2 [Example 28]	JAK3 (Homo sapiens (Human), UniProt P52333)	5.66
Cc1nc(N2C[C@H]3CCN(c4ncnc5[nH]ccc45)C[C@@]3(C)C2)ccc1C#N (racemic) [Example 45]	JAK3 (Homo sapiens (Human), UniProt P52333)	6.92
CC[C@@]12CN(C#N)CC[C@@H]1CCN(c1ncnc3[nH]ccc13)C2 [Example 21]	JAK3 (Homo sapiens (Human), UniProt P52333)	6.24

Next, consider the following compound.
Quote pEC50 with test system JAK3 (Homo sapiens (Human), UniProt P52333) for C[C@]12CN(C(=O)CC#N)C[C@H]1CCN(c1ncnc3[nH]ccc13)C2 (racemic) [Example 32]
6.79

Measured values drawn from patent US10851116B2 for this set.
